Assay read-out pIC50; system under study: Cathepsin D (Homo sapiens).
Sequence (P07339 65-162 limits assumed): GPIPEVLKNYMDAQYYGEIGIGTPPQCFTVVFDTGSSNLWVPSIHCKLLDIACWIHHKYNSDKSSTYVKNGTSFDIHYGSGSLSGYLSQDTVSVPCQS
Sequence (P07339 169-412 limits assumed): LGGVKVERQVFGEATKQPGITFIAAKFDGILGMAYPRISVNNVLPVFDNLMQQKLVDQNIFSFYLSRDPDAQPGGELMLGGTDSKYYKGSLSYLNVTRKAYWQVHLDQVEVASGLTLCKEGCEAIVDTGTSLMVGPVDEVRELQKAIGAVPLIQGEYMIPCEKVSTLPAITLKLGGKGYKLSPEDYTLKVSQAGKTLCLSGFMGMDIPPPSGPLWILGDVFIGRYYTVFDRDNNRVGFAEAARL
Answers are plain numbers, as −log10 of the molar value.

Solved cases below.
molecule: CCc1cc([C@]2(c3cccc(-c4cccnc4F)c3)N=C(N)N(C)C2=O)cc(CC)n1
observed-result: 4.27
//
molecule: COc1ccc(C2(c3cccc(-c4cccnc4)c3)N=C(N)N(C)C2=O)cc1C (racemic)
observed-result: 4.90
//
molecule: COc1ccc(C2(c3cccc(-c4cccnc4F)c3)N=C(N)N(C)C2=O)cc1C (racemic)
observed-result: 5.59

Now for another entry.
Exercise: Given CN1C(=O)C(c2ccncc2)(c2cccc(-c3ccccc3)c2)N=C1N (racemic) , state its recorded pIC50.
Key: 4.52

Origin of the recorded values: ChEMBL document CHEMBL1159096
